Data origin: PubChem BioAssay (NCI)

# reported growth; entries follow
- Test system: IGROV1 ovarian
- ASSAY DETAILS: NCI-60 one-dose screen, 48 h (100 = growth as untreated, 0 = no growth, -100 = all killed)
- MEASUREMENT SETUP: 10 µM unless noted
The panel holds about 83,000 compounds, 20% with a hit somewhere; the sample as a whole holds those more often.
Report only the number, with the unit % understood.

Lab note: measured growth of "COc1cc(/C=C2\C(=O)Nc3ccc(N(C)C)cc32)cc(OC)c1OC" was 16.6

Lab note: measured growth of "COc1cccc(Cn2c(-c3nonc3NC(C)=O)nc3ccccc32)c1" was 56.8

Lab note: measured growth of "Cc1ccc(Nc2nc(NCCO)c3ccccc3n2)cc1C" was 20.2

Lab note: measured growth of "CSC(=S)N/N=C(\C)c1ccccn1" was 19.4

Lab note: measured growth of "Nc1c(C(=O)c2ccc(Br)cc2)sc2nc3c(cc12)CCCC3" was 108

Lab note: measured growth of "Nc1ccc(C(OC(=O)c2cc3ccccc3c(Cc3c(O)c(C(=O)OC(c4ccc(N)cc4)(c4ccc(N)cc4)c4ccc(N)cc4)cc4ccccc34)c2O)(c2ccc(N)cc2)c2ccc(N)cc2)cc1" was 47.4

Lab note: measured growth of "Cc1cc(O)ccc1C1=NN(c2ccc(S(N)(=O)=O)cc2)C(=O)CC1" was -9.76
